- target_of_assay: JAK2 (Homo sapiens, UniProt O60674)
- Sequence (O60674 whole entry, species assumed): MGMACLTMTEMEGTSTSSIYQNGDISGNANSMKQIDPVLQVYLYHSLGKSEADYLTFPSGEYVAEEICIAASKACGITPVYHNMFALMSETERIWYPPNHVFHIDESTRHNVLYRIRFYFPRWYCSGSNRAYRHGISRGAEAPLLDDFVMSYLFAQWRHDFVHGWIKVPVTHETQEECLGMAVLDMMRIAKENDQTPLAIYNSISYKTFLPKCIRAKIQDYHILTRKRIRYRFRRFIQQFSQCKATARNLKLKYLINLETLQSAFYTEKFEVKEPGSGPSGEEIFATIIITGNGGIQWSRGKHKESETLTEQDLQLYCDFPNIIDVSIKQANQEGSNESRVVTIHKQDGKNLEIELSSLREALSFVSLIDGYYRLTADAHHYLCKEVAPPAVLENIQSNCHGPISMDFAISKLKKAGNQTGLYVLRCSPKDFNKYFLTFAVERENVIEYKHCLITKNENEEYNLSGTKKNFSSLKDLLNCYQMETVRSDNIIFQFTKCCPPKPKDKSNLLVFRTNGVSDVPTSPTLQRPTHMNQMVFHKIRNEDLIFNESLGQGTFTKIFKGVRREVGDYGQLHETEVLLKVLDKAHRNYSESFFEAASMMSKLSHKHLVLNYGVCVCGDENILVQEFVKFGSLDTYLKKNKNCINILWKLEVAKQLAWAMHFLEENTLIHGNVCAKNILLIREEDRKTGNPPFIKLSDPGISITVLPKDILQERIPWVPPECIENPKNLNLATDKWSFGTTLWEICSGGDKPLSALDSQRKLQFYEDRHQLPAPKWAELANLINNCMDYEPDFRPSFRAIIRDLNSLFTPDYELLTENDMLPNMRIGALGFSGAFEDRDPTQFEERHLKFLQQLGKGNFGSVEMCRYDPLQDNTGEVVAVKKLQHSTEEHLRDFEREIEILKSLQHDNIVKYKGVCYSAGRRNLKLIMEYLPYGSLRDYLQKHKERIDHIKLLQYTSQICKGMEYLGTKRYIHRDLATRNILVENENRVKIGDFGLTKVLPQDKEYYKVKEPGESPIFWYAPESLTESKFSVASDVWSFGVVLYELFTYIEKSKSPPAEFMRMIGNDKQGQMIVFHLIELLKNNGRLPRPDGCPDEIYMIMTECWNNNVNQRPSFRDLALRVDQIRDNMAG
pIC50: −log10 of the molar value.
Listing: pIC50 of selected molecules

> print(dat)
                                   molecule  assay.endpoint        result
1  C[C@@H](O)c1nc2cnc3[nH]ncc3c2n1[C@H]1CCN(CCCC#N)C1 [LXS85]           pIC50  6.00 to 7.00
2  C[C@@H](O)c1nc2cnc3[nH]ncc3c2n1[C@H]1CCN(CCCC(F)(F)F)C1 [LXS90]           pIC50  6.00 to 7.00
3  C[C@@H](O)c1nc2cnc3[nH]ccc3c2n1[C@H]1CCN(CCCC(F)(F)F)C1 [LXS71]           pIC50  6.00 to 7.00
4  C[C@@H](O)c1nc2cnc3[nH]ccc3c2n1C1CCN(C(=O)NCC(F)(F)F)C1 (stereo in doubt) [LXS20]           pIC50  6.00 to 7.00
5  CCCS(=O)(=O)N1CCC(n2c(-c3cccc(O)c3)nc3cnc4[nH]ccc4c32)C1 (centres unmarked) [LXS32]           pIC50        > 8.00

Consider C[C@@H](O)c1nc2cnc3[nH]ccc3c2n1C1CCN(S(=O)(=O)c2ccc(OC(F)(F)F)cc2)C1 (some centres unmarked) [LXS11] . Its measured pIC50 is 6.00 to 7.00

Consider CCCS(=O)(=O)N1CCC(n2c(-c3ccc(CO)o3)nc3cnc4[nH]ccc4c32)C1 (centres unmarked) [LXS16] . Its measured pIC50 is 7.00 to 8.00

Consider N#C[C@H]1CC[C@H](n2c(-c3cccc(O)c3)nc3cnc4[nH]ccc4c32)CC1 (stereo in doubt) [LXS35] . Its measured pIC50 is > 8.00

Values were extracted from patent US20240383898A1.
